Test system: giant foxtail (Setaria faberi)
Assay notes: Test G Pre-Emergence Protocol
Type: in vivo
Protocol conditions: Setaria faberi, pre-emergence, 312 h, 250 g ai/ha, evaluated after 13 days, read-out: Foxtail, Giant damage rating (100=total damage to plant; 0=no damage to plant)
Each entry below carries its recorded pest or weed control at 250 g/ha.
Please respond with the number in % and leave the unit unwritten.

Ask | Reported pest or weed control at 250 g/ha for CN1C[C@@H](c2ccc(C(F)(F)F)cc2)[C@H](C(=O)Nc2nnc[nH]2)C1=O (racemic) [Compound 1562] : what is it?
Reply | 30

More entries:
Ask | Which pest or weed control at 250 g/ha is listed for COc1cccc(NC(=O)[C@@H]2C(=O)N(C)C[C@H]2c2ccc(C(F)(F)F)cc2)n1 (racemic) [Compound 1601] ?
Reply | 80

Ask | Please give the measured pest or weed control at 250 g/ha for this compound: Cc1nc(F)ccc1NC(=O)[C@@H]1C(=O)N(C)C[C@H]1c1ccc(C(F)(F)F)cc1 (racemic) [Compound 1654]
Reply | 90

Ask | Look up pest or weed control at 250 g/ha for this compound: CN1C[C@H](c2cccc(C(F)(F)F)c2)[C@@H](C(=O)Nc2cnccc2[S+](C)[O-])C1=O (mixture of isomers) [Compound 1752]
Reply | 20
